# System: PPARg homodimer (NR concentration 180 nM)
# PROCEDURE DETAILS: PBM binding z-score (relative to random genomic background probes); higher = stronger binding; sequences stand for … in GC…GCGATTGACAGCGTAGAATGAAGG
Rule: PBM binding z-score of 0.9 or more gives TRUE; anything lower gives FALSE.

# count of solved cases: 6
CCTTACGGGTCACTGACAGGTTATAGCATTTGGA = TRUE
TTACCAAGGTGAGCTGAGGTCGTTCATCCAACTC = FALSE
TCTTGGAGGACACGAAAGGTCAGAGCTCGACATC = TRUE
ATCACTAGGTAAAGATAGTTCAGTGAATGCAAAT = FALSE
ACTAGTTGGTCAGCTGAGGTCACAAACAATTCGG = TRUE
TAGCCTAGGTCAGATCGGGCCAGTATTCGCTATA = FALSE

Task: Say whether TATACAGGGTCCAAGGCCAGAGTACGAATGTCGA shows PBM binding z-score of 0.9 or more.
Output: FALSE

Task: Say whether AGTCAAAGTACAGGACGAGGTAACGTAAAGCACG shows PBM binding z-score of 0.9 or more.
Output: FALSE

Task: Say whether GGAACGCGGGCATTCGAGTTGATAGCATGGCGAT shows PBM binding z-score of 0.9 or more.
Output: FALSE

Task: Say whether GCTGCTAGGTCGGGTTGGTCAGCTAACGGGTACG shows PBM binding z-score of 0.9 or more.
Output: FALSE

Task: Say whether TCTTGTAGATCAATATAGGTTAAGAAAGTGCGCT shows PBM binding z-score of 0.9 or more.
Output: FALSE

Task: Say whether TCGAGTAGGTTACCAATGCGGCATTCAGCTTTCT shows PBM binding z-score of 0.9 or more.
Output: FALSE

Task: Say whether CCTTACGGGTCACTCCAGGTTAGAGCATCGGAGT shows PBM binding z-score of 0.9 or more.
Output: TRUE

Task: Say whether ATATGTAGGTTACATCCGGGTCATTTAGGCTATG shows PBM binding z-score of 0.9 or more.
Output: TRUE

Task: Say whether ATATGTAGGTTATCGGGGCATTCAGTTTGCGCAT shows PBM binding z-score of 0.9 or more.
Output: TRUE

Task: Say whether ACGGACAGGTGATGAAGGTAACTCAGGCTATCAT shows PBM binding z-score of 0.9 or more.
Output: FALSE

Task: Say whether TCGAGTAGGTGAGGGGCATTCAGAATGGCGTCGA shows PBM binding z-score of 0.9 or more.
Output: FALSE

Task: Say whether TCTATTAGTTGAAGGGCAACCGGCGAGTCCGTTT shows PBM binding z-score of 0.9 or more.
Output: TRUE

Task: Say whether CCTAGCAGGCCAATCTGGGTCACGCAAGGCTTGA shows PBM binding z-score of 0.9 or more.
Output: FALSE

Task: Say whether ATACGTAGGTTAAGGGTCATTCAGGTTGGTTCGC shows PBM binding z-score of 0.9 or more.
Output: TRUE

Task: Say whether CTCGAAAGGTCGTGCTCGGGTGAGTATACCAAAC shows PBM binding z-score of 0.9 or more.
Output: TRUE

Task: Say whether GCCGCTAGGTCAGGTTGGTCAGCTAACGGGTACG shows PBM binding z-score of 0.9 or more.
Output: FALSE

Task: Say whether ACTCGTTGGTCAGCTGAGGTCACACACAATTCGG shows PBM binding z-score of 0.9 or more.
Output: TRUE

Task: Say whether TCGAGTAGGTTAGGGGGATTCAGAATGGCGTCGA shows PBM binding z-score of 0.9 or more.
Output: TRUE

Task: Say whether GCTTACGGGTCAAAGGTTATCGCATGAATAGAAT shows PBM binding z-score of 0.9 or more.
Output: TRUE

Task: Say whether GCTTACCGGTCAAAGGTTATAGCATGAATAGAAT shows PBM binding z-score of 0.9 or more.
Output: TRUE

Task: Say whether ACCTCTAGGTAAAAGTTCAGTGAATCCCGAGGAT shows PBM binding z-score of 0.9 or more.
Output: TRUE

Task: Say whether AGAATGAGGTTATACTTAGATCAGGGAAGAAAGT shows PBM binding z-score of 0.9 or more.
Output: TRUE

----------
# Test system: PPARg:RXRa 90nM:30nM, anti-RXR (NR concentration 90 nM, RXRa partner concentration 30 nM)
# PROCEDURE DETAILS: PBM binding z-score (relative to random genomic background probes); higher = stronger binding; sequences stand for … in GC…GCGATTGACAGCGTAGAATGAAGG
ASSAY ENDPOINT: PBM binding z-score
One number for each entry.

Solved cases below.
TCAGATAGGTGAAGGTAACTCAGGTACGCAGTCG = 3.01
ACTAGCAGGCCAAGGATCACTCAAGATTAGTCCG = 2.55
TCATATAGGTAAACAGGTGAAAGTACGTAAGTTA = 4.17

Could I get PBM binding z-score for every one of these entries?
1. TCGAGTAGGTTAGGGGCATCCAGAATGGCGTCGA
2. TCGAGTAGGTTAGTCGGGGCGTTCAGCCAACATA
3. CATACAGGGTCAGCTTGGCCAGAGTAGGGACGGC
4. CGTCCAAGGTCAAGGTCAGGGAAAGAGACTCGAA
5. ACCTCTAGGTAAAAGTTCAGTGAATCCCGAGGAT

Output:
1.8
0.186
1.57
5.91
8.74

----------
# Test system: PPARg:RXRa IVT, anti-PPARg (NR concentration 270 nM, RXRa partner concentration 90 nM)
# PROCEDURE DETAILS: PBM binding z-score (relative to random genomic background probes); higher = stronger binding; sequences stand for … in GC…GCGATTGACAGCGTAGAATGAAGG
ASSAY ENDPOINT: PBM binding z-score
Numbers only.

Solved cases below.
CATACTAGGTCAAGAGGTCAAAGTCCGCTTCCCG = 7.69
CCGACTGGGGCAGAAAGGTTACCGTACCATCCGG = 2.39
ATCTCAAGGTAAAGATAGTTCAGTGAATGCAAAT = 0.461
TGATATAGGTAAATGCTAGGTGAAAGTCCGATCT = 3.66
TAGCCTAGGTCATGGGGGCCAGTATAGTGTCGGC = 4.23

Could I get PBM binding z-score for every one of these entries?
1. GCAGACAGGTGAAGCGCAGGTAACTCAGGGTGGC
2. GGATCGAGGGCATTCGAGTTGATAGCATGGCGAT
3. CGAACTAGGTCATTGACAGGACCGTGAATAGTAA
4. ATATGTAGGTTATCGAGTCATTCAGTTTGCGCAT
5. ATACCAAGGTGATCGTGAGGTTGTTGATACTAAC
6. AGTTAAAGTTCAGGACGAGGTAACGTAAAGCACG
7. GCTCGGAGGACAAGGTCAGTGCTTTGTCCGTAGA

Output:
1: 0.226; 2: 2.38; 3: 8.42; 4: 6.84; 5: 0.997; 6: 1.18; 7: 0.926

----------
# System: RARg homodimer (NR concentration 270 nM)
# PROCEDURE DETAILS: PBM binding z-score (relative to random genomic background probes); higher = stronger binding; sequences stand for … in GC…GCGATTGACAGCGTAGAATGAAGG
ASSAY ENDPOINT: PBM binding z-score
Answers are plain numbers.

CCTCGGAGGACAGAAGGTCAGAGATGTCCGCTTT = 3.21
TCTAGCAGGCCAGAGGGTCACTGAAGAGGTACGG = 1.97
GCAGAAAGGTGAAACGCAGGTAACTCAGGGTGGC = 1.84
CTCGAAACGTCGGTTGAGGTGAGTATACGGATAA = 0.0959
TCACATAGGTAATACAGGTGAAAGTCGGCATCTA = 0.535

Could I get PBM binding z-score for every one of these entries?
1. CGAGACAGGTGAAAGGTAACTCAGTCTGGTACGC
2. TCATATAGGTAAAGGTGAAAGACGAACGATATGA
3. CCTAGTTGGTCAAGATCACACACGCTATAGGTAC
4. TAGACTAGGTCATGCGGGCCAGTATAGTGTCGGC
5. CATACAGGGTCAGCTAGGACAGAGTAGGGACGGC
6. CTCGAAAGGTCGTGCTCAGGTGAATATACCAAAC
7. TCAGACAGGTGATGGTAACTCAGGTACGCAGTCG
8. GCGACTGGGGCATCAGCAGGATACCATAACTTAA

Output:
1. 0.702
2. 1.34
3. 1.22
4. 4.13
5. 4.66
6. 4.17
7. 0.147
8. 0.464
